Provide the recorded Foxtail, Giant plant response rating (0 to 100 scale) for the entries that follow.
System: foxtail, giant (giant foxtail, Setaria faberii)
Assay: Test A postemergence application, visual injury rating
Assay type: in vivo
Conditions: 125 g ai/ha, approx. 10 d, 0 = no effect, 100 = complete control
Give bare numbers.

Observe how each entry below is paired with its result.
Compound | Recorded Measurement
Cc1ccc(C2Cn3cnnc3C2C(=O)Nc2ccccc2F)cc1 (stereo not shown) | 60
O=C(Nc1ccccc1F)C1c2nncn2CC1c1cccc(C(F)(F)F)c1 (stereo not shown) | 50
CCc1nnc2n1CC(c1ccc(C(F)(F)F)cc1)C2C(=O)Nc1cccc(F)c1F (stereo not shown) | 20

Please turn your attention to the following entry.
Value of Foxtail, Giant plant response rating (0 to 100 scale) reported for the compound CCCc1nnc2n1CC(c1ccc(C(F)(F)F)cc1)C2C(=O)Nc1cccc(F)c1F (stereo not shown) is 0
